# measurementNotes: Comparative in vitro antibacterial activity of compound with trimethoprim against Salmonella typhi CN512
# Type: functional, salmonella typhosa
quantityName: MIC (µg/mL)
Reply numerically in µg/mL, unit not repeated.

Examples with their reported MIC follow.
{"recordSmiles": "CCCCCc1cc(OC)c2cc(Cc3cnc(N)nc3N)cc(OC)c2n1", "MIC, µg/mL": 30}
{"recordSmiles": "COc1cc(C)nc2c(OC)cc(Cc3cnc(N)nc3N)cc12", "MIC, µg/mL": 10}
{"recordSmiles": "COc1cc(C)c2ccc(Cc3cnc(N)nc3N)cc2n1", "MIC, µg/mL": 1000}
{"recordSmiles": "Cc1cc(N2CCOCC2)nc2cc(Cc3cnc(N)nc3N)ccc12", "MIC, µg/mL": 10000}
{"recordSmiles": "Cc1cc(N2CCOCC2)nc2c(C)cc(Cc3cnc(N)nc3N)cc12", "MIC, µg/mL": 30}

Returns the measured MIC for the input compound. Input: Cc1cc(N(C)C)nc2c(C)cc(Cc3cnc(N)nc3N)cc12
3

Could you share which MIC value was measured for COc1cc(Cc2cnc(N)nc2N)cc2c(N(C)C)cc(C)nc12 ?
100

# MIC lookup, item COc1cc(C)c2cc(Cc3cnc(N)nc3N)cc(C)c2n1
10

Please report the recorded MIC for Cc1cc(N(C)C)nc2ccc(Cc3cnc(N)nc3N)cc12 .
10

###

Entries and their MIC values follow.
# System: Serratia marcescens
# measurementNotes: Comparative in vitro antibacterial activity of compound with trimethoprim against Serratia marcescens CN2398
# Format: functional
Value expressed in µg/mL; do not type the unit.

Examples from the recorded data:
{"recordSmiles": "CCCCCc1cc(OC)c2cc(Cc3cnc(N)nc3N)cc(OC)c2n1", "MIC (µg/mL)": 30}
{"recordSmiles": "Cc1cc(N(C)C)nc2ccc(Cc3cnc(N)nc3N)cc12", "MIC (µg/mL)": 3}
{"recordSmiles": "COc1cc(C)c2cc(Cc3cnc(N)nc3N)cc(C)c2n1", "MIC (µg/mL)": 10}
{"recordSmiles": "COc1cc(C)nc2c(OC)cc(Cc3cnc(N)nc3N)cc12", "MIC (µg/mL)": 3}
{"recordSmiles": "Cc1cc(N(C)C)nc2c(C)cc(Cc3cnc(N)nc3N)cc12", "MIC (µg/mL)": 10}

Note: attention shifts to another entry.
Looking for the measured MIC of Cc1cc(N2CCOCC2)nc2c(C)cc(Cc3cnc(N)nc3N)cc12 , can you help?
100

###

Reported MIC values follow for various compounds
# Tested on: Streptococcus pyogenes
# measurementNotes: Comparative in vitro antibacterial activity of compound with trimethoprim against Streptococcus pyogenes CN10
# Type: functional
Answer by giving the amount and then stating its unit.

Given the compound Cc1cc(N2CCOCC2)nc2cc(Cc3cnc(N)nc3N)ccc12 , what is its reported MIC?
10 µg/mL

If you can, please state the reported MIC value of COc1cc(Cc2cnc(N)nc2N)cc2c(N(C)C)cc(C)nc12 .
10 µg/mL

Fill in: MIC of COc1cc(C)c2ccc(Cc3cnc(N)nc3N)cc2n1 is ___
3 µg/mL

// lookup MIC for CCCCCc1cc(OC)c2cc(Cc3cnc(N)nc3N)cc(OC)c2n1
3 µg/mL

Entry Cc1cc(N2CCOCC2)nc2c(C)cc(Cc3cnc(N)nc3N)cc12 has what MIC?
1 µg/mL

The origin of these recorded values is ChEMBL document CHEMBL1124567.
